Reference for the values: patent US20200199204A1

# assay-system: HIV-1 Env of CAP256.SU (HIV-1)
# test-details: cell-based or functional assay
property-name: neutralization IC50 (µg/mL)
Numbers only, in µg/mL.

Use the examples below as a reference point.
>>> test_result("CAP256-VRC26.12 (antibody, V domains shown) VH: EVQLVQSGGGVVQPGRSLRLSCAAPYFEFGRYGFHWVRQAPGKGLEWVASISFAGRDYYHSPSVWGRFTISRDNSKNTLYLQMNSLRIEDTALYFCARDLRESECEEWESDYYDFGKKGPCVKPRGVAGGLDLWGQGTMVIVSS VL: QSVLTQPPSVSTAPGQTVTVSCSGGTSNTGNNFVSWYQHLPGTAPKLLIYENNKRPLGVPDRFSGAKSGTSATLAITGLQTGDEGDYYCATWSGSLNIGTGTKVSVLG")
0.032
>>> test_result("CAP256-VRC26.03 (antibody, V domains shown) VH: EVQLVESGGGVVQPGKSLRLSCAASRFSFNRYGMHWVRQAPGKGLEWVAAISYDGTDKYHADKVWGRFTISRDNSKNTLYLQMNSLRAEDTALYYCAKDLREDECEEWWSDYYDFGKQLPCRKSRGVAGIFDGWGQGTMVTVSS VL: QSVLTQPPSVSAAPGQKVTISCSGSSSNIGNNFVSWYQQRPGTAPKILIYENNKRPSETPDRFSGSKSGTSATLAITGLQTADEAEYYCATWSASLSSARVFGTGTRITVLG")
0.004
>>> test_result("CAP256-VRC26.02 (antibody, V domains shown) VH: EVQLVESGGGVVQPGRSLRLSCAASQFSFGNYGMHWVRQAPGKGLEWVAAISFAGTKTNYADSVKGRFTISRDNSKNTVYLQMNSLRAEDTALYFCAKDIREYECEYWTSDYYDFGRPQPCIDSRGVVGTFDVWGQGTMVTVSS VL: QSVLTQPPSVSAAPGQKVTISCSGSNSNIGNKDVSWYQQIPATAPKLLIYENNKRPSGISDRFSGSKSGTSATLAITGLQTGDEADYYCATWDGRVSVIGTGTNVIVLG")
0.015

I'm hoping you can list neutralization IC50 for every binder here, please.
1. CAP256-VRC26.05 (antibody, V domains shown) VH: EVQLVESGGGVVQPGRSLRLSCAASHFSLSSYGMHWVRQAPGKGLEWVTGISFAGTKTYYGDSVRGRFTVSRDISKNTLFLQMNSLRPDDTAMYYCARDQRYYECEEWASDYYDFGREQPCLDPRGVVGIFDLWGQGTMVTVSS VL: QSALTQPPSVSAAPGQKVTISCSGNIGNNYVSWYQQVPGTAPKLLIYENNKRPSGIPDRFSGSKSGTSATLVITGLQTGDEADFYCGTWGGSLRTGGVLGTGTRVTVLG
2. CAP256-VRC26.06 (antibody, V domains shown) VH: EVQLIESGGGVVQPGRSLRLSCGASGFSFNNYGMHWVRQAPGKGLEWVAGISFAGIKKYYGTSVKGRFTISRDNSKNNFYLQMNSLRVEDTALYYCARDLRELECEEWTLYNYYDFGSRGPCVDPRGVAGSFDVWGQGTMVTVSS VL: QSVLTQPPSVSAAPGQKVTISCSGSTSKIGQNSVSWYQQLPGTAPKLLIYENDRRPSGTPDRFSGSKSGTSATLAITGLQTGDEAEYYCETWDGSGGVFGTGTKVTVLG
3. CAP256-VRC26.08 (antibody, V domains shown) VH: EVQLVESGGGVVQPGRSLTLSCAASQFTFSNYGMHWVRQAPGKGLEWVASVSNDGTKKYHGDSVWGRFTISRDNSKNTLFLQMSSLRAEDTAVYFCVRDQREDECEEWWSDYYDFGRELPCRKFRGLGLAGIFDIWGHGTMVTVSS VL: QSALTQPPSVSAAPGQKVTISCSGNSSNIGNNFVSWYQQVPGTAPKLLLYETYRRPSGIPDRFSGSKSGTSATLAITGLQTGDEADYYCTVWGVRKGVGAVFGTGTKVTVLG
4. CAP256-VRC26.10 (antibody, V domains shown) VH: QAILVESGGGVVQPGRSLRLSCAASQFTFSGHGLHWVRQAPGKGLEWVASISFAGTKMDYADSVKGRFAISRDNSKNTLYLQMNSLRVEDTALYYCAKDMREYECEYWTSDYYDFGRPQPCIDRRGVVGIFDMWGQGTMVTVST VL: QSVLTQPPSVSAAPGQKVTISCSGSSSNIGDNYVSWYQHLPGTAPKLLIYENTRRPSGIPDRFSGSKSGTSATLAITGLQTGDEADYYCGTWDVRPNRGAVFGTGTKVTVLG
5. CAP256-VRC26.11 (antibody, V domains shown) VH: EVQLVESGGGVVPPGKSLTLSCVASRFTFSAFGMHWVRQAPGKGLEWVASISFAGIKKYYADSVKGRFSISRDNSNTLFLQMNGLRGEDTGLYHCVKDMRELECEEWASDYYDFGKPQPCLDRRGVSGISAWWGPGTMVTVSS VL: QSVLTQPPSVSAAPGQNVTISCSGPPSHIEKNDVSWYQRLPGMAPKMVIYESKRRPLGIPVRFSASRSGSSATLVITGLQTADEADYYCGTWDGRMNFGTGTTVSVLG
6. CAP256-VRC26.07 (antibody, V domains shown) VH: EVQLVESGGGVVQPGRSLRLSCVGSQFSFNRYGMHWVRQAPGKGLEWVAGISFDGTDRYHADNVWGRFTISRDNSKNTLYLQMSSLRAEDTALYYCAKDLREDECEEWWSDYYDFGKKLPCRKSRGVAGVFDKWGQGTMVTVSS VL: QAVLTQPPSVSAAPGQNVTISCSGSGSNIGNNFVSWYQQRPGTAPKLLIYESNKRPSGIPDRFSGSKSGTSATLAITGLQTGDEAYYYCATWAARLNSARVFGTGTMVTVLG

[reply]
[0.007, 0.055, 0.003, 0.031, 0.055, 0.008]
